- Tested on: OVCAR4
- Test protocol: Euclidean distance of Cell Painting phenotypic profile (signed KS, 77 features) to DMSO centroid (dimensionless distance); 5 or 10 uM (library dependent); higher = stronger phenotypic change vs DMSO (phenoactivity)
- Experimental setup: 48 h
Counter-ions that a name gives are not always drawn.
A collection of molecules and their measured Euclidean distance
// no unit string in output, number only

Some solved entries appear below for comparison.
Molecule | Readout number
CCOc1ccc(C[C@H]2NC(=O)CCSSC[C@@H](C(=O)N3CCC[C@H]3C(=O)N[C@@H](CCCN)C(=O)NCC(N)=O)NC(=O)[C@H](CC(N)=O)NC(=O)[C@H]([C@@H](C)O)NC(=O)[C@H]([C@@H](C)CC)NC2=O)cc1 [Atosiban Acetate] | 1.9
O=C(O)c1ccccc1Nc1cccc(C(F)(F)F)c1 | 1.36
OC(CCN1CCCCC1)(c1ccccc1)C1CCCCC1 (stereo not given) [Trihexyphenidyl hydrochloride] | 2.16
CN(C)C(=O)[C@H](O)[C@H](Cc1ccccc1)NC(=O)c1cc2cc(Cl)ccc2[nH]1 | 0.908
Cc1ccsc1/C=C/C1=NCCCN1C [Morantel tartrate] | 1.21

I looked up CCCC(=O)O[C@]1(C(=O)CO)CC[C@H]2[C@@H]3CCC4=CC(=O)CC[C@]4(C)[C@H]3[C@@H](O)C[C@@]21C [Hydrocortisone butyrate] and its Euclidean distance for OVCAR4 was 2.45

I looked up O=C(NC(NC(=S)Nc1ccc(F)c([N+](=O)[O-])c1)C(Cl)(Cl)Cl)C(c1ccccc1)c1ccccc1 (stereo not given) and its Euclidean distance for OVCAR4 was 1.25

I looked up O=C(c1cccc(Cl)c1F)N1CCN(Cc2cccc(Nc3nccs3)n2)CC1 and its Euclidean distance for OVCAR4 was 2.83

I looked up O=C(Nc1ccc(Cl)cc1)Nc1ccc(Cl)c(Cl)c1 and its Euclidean distance for OVCAR4 was 2.98

I looked up Cc1cn(-c2cc(NC(=O)c3ccc(C)c(Nc4nccc(-c5cccnc5)n4)c3)cc(C(F)(F)F)c2)cn1 [Nilotinib (AMN-107)] and its Euclidean distance for OVCAR4 was 1.8

====

A collection of compounds and their measured Euclidean distance
- Test system: HEPG2
- Test protocol: Euclidean distance of Cell Painting phenotypic profile (signed KS, 77 features) to DMSO centroid (dimensionless distance); 5 or 10 uM (library dependent); higher = stronger phenotypic change vs DMSO (phenoactivity)
- Experimental setup: 48 h
Where a name gives a salt, the structure may show the parent alone.
// no unit string in output, number only

Some solved entries appear below for comparison.
Compound | Subject of test | Euclidean distance
COc1cc2c(cc1OC)[C@@H]1Cc3ccc(OC)c(OC)c3CN1CC2 [Tetrahydropalmatine] | HEPG2 | 0.585
CCc1c(Cl)c(O)c(Cl)c(O)c1C(=O)O[C@H]1[C@H](O)[C@H](OC)[C@H](OC/C2=C\C=C\C[C@H](O)/C(C)=C/[C@H](CC)[C@@H](O[C@@H]3OC(C)(C)[C@@H](OC(=O)C(C)C)[C@H](O)[C@@H]3O)/C(C)=C/C(C)=C/C[C@@H]([C@@H](C)O)OC2=O)O[C@@H]1C | HEPG2 | 1.5
NCCNc1ccc(NCCN)c2c1C(=O)c1ccncc1C2=O [Pixantrone Maleate] | HEPG2 | 4.48

Here is another compound to look at.
// field: Euclidean distance; key: Cc1nc(Nc2ccc(F)cc2)nc(N2CCc3ccccc3C2C)c1C (centres undefined) [Revaprazan Hydrochloride] ; value = 1.21
